B1: HDV Ribozyme (parent)
chain: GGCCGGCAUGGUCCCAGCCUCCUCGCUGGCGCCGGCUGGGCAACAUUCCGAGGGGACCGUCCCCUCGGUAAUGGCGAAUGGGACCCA

- Variants of: B1
- Protocol Description: self-cleavage, relative activity (ratio to wild type); higher = more cleavage; co-transcriptional
Kindly return 1 if reported self-cleavage is no lower than 0.6; return -1 if it is lower.

* GGCCGGCUUGGUCCCAGCCUCCUCGCUGGCGCCGGCUGGGCAGCAUUCCGAGGGGACCGUCCCCUCGGUAAUGGCGAAUGGGACCCA [A8U A43G] | -1
* GGCCGGCAUGGUCCCAGCCUCCUCGCUGGCGCCGGCUGGGCAUCAUUCCGAGGGGACCGUCCCCUCGGUAAUGGCGAAUGCGACCCA [A43U G81C] | -1
* CGACGGCAUGGUCCCAGCCUCCUCGCUGGCGCCGGCUGGGCAACAUUCCGAGGGGACCGUCCCCUCGGUAAUGGCGAAUGGGACCCA [G1C C3A] | -1
* GGCCGGCAUGGUCCCAGCCUCCUCGCUUGCGCCGGCUGGGCAACAUUCCGAGGGGACCGUCCCCUCGGUACUGGCGAAUGGGACCCA [G28U A71C] | -1
* GGCCGGCAUGGACCCAGCCUCCUCGCUGGCGCCGGCUGAGCAACAUUCCGAGGGGACCGUCCCCUCGGUAAUGGCGAAUGGGACCCA [U12A G39A] | -1
* GGCCGGCAUGGUCCCAGCCCCCUCGCUGGCGCCGGCUGGGCAACAUUCCGAGGGGACCGUCCCCUCGGUAAUUGCGAAUGGGACCCA [U20C G73U] | -1
* GGCCGGCAUGGUCCCAGCCUCCUCGCUGGAGCCGGCUGGGCAACAUUCCAAGGGGACCGUCCCCUCGGUAAUGGCGAAUGGGACCCA [C30A G50A] | 1
* GGCCGGCAUGGUCCCAGCCUCCUCGCUGGCACCGGCUGGGCAACAUUCCGAGGGGACCGUCCCCUCGGUAAUGGCGAAUGGGAGCCA [G31A C84G] | -1
* GGCCGGCAUGGUCCCAGCCUCCUCGCUGGCGCCGGCUGGGCAACAUUCCGAGGGGAGCGUCCCCUCGGUAAUGGCGAAUCGGACCCA [C57G G80C] | -1
* GGCCGGCAUGGUCCCAGCCUCCUCGCUGGCGCCGGCUGGGCAACAUGCCGAGGGGACCGUCCCCUCGGUAAUGGCGAAUGGGACCGA [U47G C86G] | 1
* GGCCGGCAUGGUCCCAGCCUCCCCGCUGGCGCCGGCUGGGCAACAUUCCGAGUGGACCGUCCCCUCGGUAAUGGCGAAUGGGACCCA [U23C G53U] | 1
* GGCCGGCAUGGUCCCAGCCUCCUCGCUGGCGCCGGCUGGGCAAAAUUCCCAGGGGACCGUCCCCUCGGUAAUGGCGAAUGGGACCCA [C44A G50C] | 1
* GGCCGGCAUGGUCCCAGCCACCUCGCUGACGCCGGCUGGGCAACAUUCCGAGGGGACCGUCCCCUCGGUAAUGGCGAAUGGGACCCA [U20A G29A] | -1
* GGCCGGCAUGGUCCCAGCCUCCUCGCUGGCGCCGGCUGGGCAACAUUCCGCGGGGACCGUCCCCUCGGUACUGGCGAAUGGGACCCA [A51C A71C] | 1
* GGCCGGCAUGGUCCCAGCCUCCUCGCUGGCGCCGGCUGGGCAACAUUCCGAGGGGACCGUCCCCUCGGUAAUGGCGAUAGGGACCCA [A78U U79A] | -1
* GGCCGCCAUGGUCCCAGCCUACUCGCUGGCGCCGGCUGGGCAACAUUCCGAGGGGACCGUCCCCUCGGUAAUGGCGAAUGGGACCCA [G6C C21A] | -1
* GGCCGGCAUGGUCCCAGCCCCCUCGCUGGCGCCGGCUGGGCAACAUUCCGAGGUGACCGUCCCCUCGGUAAUGGCGAAUGGGACCCA [U20C G54U] | -1
* GGCCUGCAUGGUCCCAGCCUCCUCGCUGGCGCCGGCUGGGCAACAUUCCGAGGGGUCCGUCCCCUCGGUAAUGGCGAAUGGGACCCA [G5U A56U] | -1
* GGCCGGCAUGGUCCCAGCCUCCUCGCUGGCGCCGGCUGGGGAACAUUCCGUGGGGACCGUCCCCUCGGUAAUGGCGAAUGGGACCCA [C41G A51U] | 1
* GGCCGGCAUGGUCCGAGCCUCCUCGCUGGCGCCGGCUGGGCAACAUUCCGAGGGGACCGUCCCCUCGGUAAUGGCGAAUGGGACCCU [C15G A87U] | -1
* GGCUGGCAUGGUCCCAGCCUCCUCGCUGGCGCCGGCUGGGCAACAUUCCGAGGGGACCGUCCCCUCGGUCAUGGCGAAUGGGACCCA [C4U A70C] | -1
* UGCCGGCAUGGUCCCAGCCUCCUCGCUGGCGCCUGCUGGGCAACAUUCCGAGGGGACCGUCCCCUCGGUAAUGGCGAAUGGGACCCA [G1U G34U] | -1
